Tested on: MCF7
EXPERIMENT SUMMARY: Cytotoxicity against human MCF7 cells assessed as reduction in cell viability after 48 hrs by MTT assay
Type: functional, cell-based
CONDITIONS: MCF7, 48 h
Below, each of the compounds is paired with its reported pIC50 value.
# pIC50 = -log10(concentration in molar units)

[
  {
    "CPD SMILES": "CC(C)(C)c1nc(Nc2cc(C(F)(F)F)cc(C(F)(F)F)c2)sc1Cc1ccc2c(c1)OCO2",
    "pIC50": 5.04
  },
  {
    "CPD SMILES": "CC(C)(C)c1nc(Nc2ccc([N+](=O)[O-])cc2F)sc1Cc1ccc2c(c1)OCO2",
    "pIC50": 4.48
  },
  {
    "CPD SMILES": "CC(C)(C)c1nc(Nc2ccccc2)sc1Cc1ccc2c(c1)OCO2",
    "pIC50": 4.94
  }
]

Consider the additional compound presented here.
For this compound ( "CC(C)(C)c1nc(Nc2ccccc2Br)sc1Cc1ccc2c(c1)OCO2" ), measured pIC50 is 4.40

====

Tested on: HeLa
EXPERIMENT SUMMARY: Cytotoxicity against human HeLa cells assessed as reduction in cell viability after 48 hrs by MTT assay
Assay type: functional, cell-based
REPORTED METRIC: pIC50
# pIC50 = -log10(concentration in molar units)

Consider the worked cases shown below.
[
  {
    "CPD SMILES": "CC(C)(C)c1nc(Nc2ccc(Cl)cc2)sc1Cc1ccc2c(c1)OCO2",
    "pIC50": 4.96
  },
  {
    "CPD SMILES": "COc1ccc(Nc2nc(C(C)(C)C)c(Cc3ccc4c(c3)OCO4)s2)cc1",
    "pIC50": 4.93
  },
  {
    "CPD SMILES": "CC(C)(C)c1nc(Nc2ccc([N+](=O)[O-])cc2)sc1Cc1ccc2c(c1)OCO2",
    "pIC50": 5.38
  }
]

Consider the additional molecule presented here.
Summary: "CC(C)(C)c1nc(Nc2ccccc2Cl)sc1Cc1ccc2c(c1)OCO2" , HeLa, pIC50 = 4.72
